Reported TGI values follow for various compounds
test system: TK-10 renal; experiment: NCI tumour cell line growth inhibition, 48 h

CC1=CC[C@@]2(C)[C@@H]([C@@H]1C)[C@H]1CC[C@@H]3[C@@]4(C)CC[C@H](O)C(C)(C)[C@@H]4CC[C@@]3(C)[C@]1(C)C[C@@H]2O: > 70.7 µM
CC(C)[Si](OCC/C=C/C1CCC(=O)C1C(O)C1CCCCC1)(C(C)C)C(C)C (centres undefined): 32.7 µM
CC1(C)OC(=O)C=C(O)O1.CC1(C)OC(=O)C=C(O)O1.CCO.Oc1ccc2c(c1)CCC2.[Ti]: > 100 µM

Now consider a different compound.
Prompt: I would be grateful if you could share the reported TGI for c1cc2[se][se]c3c4cccc5[se][se]c(c(c1)c23)c54 .
Response: > 100 µM

---

test system: NCI-H226 lung; assay: NCI tumour cell line growth inhibition, 48 h
PROPERTY_LABEL: GI50

Completed entries (count: 2):
Cc1cc2c(cc1C)[n+](=O)c(C(=O)c1cccs1)c(C(F)(F)F)n2[O-]: 4.06 µM
CN1CCN(CCCOc2ccc3ncnc(Nc4ccc(Oc5cccc(C(F)(F)F)c5)c(Cl)c4)c3c2)CC1: 21 µM

Now consider a different compound.
Prompt: I would be grateful if you could share the reported GI50 for CC(=O)O[C@H]1C(=O)[C@@]2(C)[C@H]([C@H](OC(=O)c3ccccc3)[C@]3(O)C[C@H](OC(=O)[C@H](OC(=O)CCC(=O)OC4CCC(S/N=C(N)/N=C(\N)N(C)C)CC4)[C@@H](NC(=O)c4ccccc4)c4ccccc4)C(C)=C1C3(C)C)[C@]1(OC(C)=O)CO[C@@H]1C[C@@H]2O (stereo partly drawn) .
Response: 23.4 µM

---

test system: NCI-H226 lung; experiment: NCI tumour cell line growth inhibition, 48 h
PROPERTY_LABEL: TGI (µM)
Lab book: enter the figure in µM, no units written.

Completed entries (count: 3):
COc1cc(/C=C/C(=O)CC(=O)/C=C/c2ccc(OC(=O)CCNC34CC5CC(CC(C5)C3)C4)c(OC)c2)ccc1OC(=O)CCNC12CC3CC(CC(C3)C1)C2: 30.5
O=C1C=CC(=O)N1c1ccc2c(c1)Cc1cc(NC(=O)C(F)(F)F)ccc1-2: 17.6
COc1cc(/C=C2\C[C@H]3[C@@H]4CC=C5C[C@@H](OC(C)=O)CC[C@]5(C)[C@H]4CC[C@]3(C)[C@H]2OC(C)=O)ccc1OCCCn1ccnc1: 24.6

Prompt: I would be grateful if you could share the reported TGI for CCCCC1Cc2cc(OC)ccc2-c2nc3cc(OC)ccc3n21 (configuration not stated) (tested in a mixture with another compound) .
Response: 28.1

---

system: MCF7 breast; experiment: NCI tumour cell line growth inhibition, 48 h
PROPERTY_LABEL: TGI (µM)
Lab book: enter the figure in µM, no units written.

C[C@@H](Oc1cc(-c2cnn(C3CC4(CCNCC4)C3)c2)cnc1N)c1c(F)ccc(Cl)c1Cl: 1.88
CCOC(=O)c1ccc2[nH]c(Cc3[nH]c4ccc(C(=O)OCC)cc4c3C)c(C)c2c1: 22.6
C=C1C(=O)O[C@H]2[C@H]1CC/C(COC(=O)NCCc1c[nH]c3ccccc13)=C\CC[C@@]1(C)O[C@@H]21: 2.26

Prompt: I would be grateful if you could share the reported TGI for CC1=C([Se]CC(OC(=O)[C@@H](CSSC(C)(C)C)NC(=O)C(C)(C)C)C(=O)NCCCCCC(=O)OCc2ccccc2)C(=O)c2ccccc2C1=O (stereo not given in full) .
Response: 9.74

---

Reported TGI values follow for various compounds
test system: NCI-H226 lung; experiment: NCI tumour cell line growth inhibition, 48 h

S=C(NCCCCCCNC(=S)Nc1c2ccccc2nc2ccccc12)Nc1c2ccccc2nc2ccccc12: > 30.1 µM

Prompt: I would be grateful if you could share the reported TGI for OC1OC(c2ccc[nH]2)C(F)(F)C(F)(F)C1(F)F (stereo not drawn) .
Response: > 100 µM

Prompt: I would be grateful if you could share the reported TGI for Cc1c(Cl)c(=O)oc2cc(OCC(=O)c3ccccc3)ccc12 .
Response: > 100 µM
